Entries and their measured Percent Effect follow.
- assayed_target: Tyrosyl-tRNA synthetase, putative (Trypanosoma cruzi (strain CL Brener)) (UniProt Q4DSP6)
- Sequence (whole entry): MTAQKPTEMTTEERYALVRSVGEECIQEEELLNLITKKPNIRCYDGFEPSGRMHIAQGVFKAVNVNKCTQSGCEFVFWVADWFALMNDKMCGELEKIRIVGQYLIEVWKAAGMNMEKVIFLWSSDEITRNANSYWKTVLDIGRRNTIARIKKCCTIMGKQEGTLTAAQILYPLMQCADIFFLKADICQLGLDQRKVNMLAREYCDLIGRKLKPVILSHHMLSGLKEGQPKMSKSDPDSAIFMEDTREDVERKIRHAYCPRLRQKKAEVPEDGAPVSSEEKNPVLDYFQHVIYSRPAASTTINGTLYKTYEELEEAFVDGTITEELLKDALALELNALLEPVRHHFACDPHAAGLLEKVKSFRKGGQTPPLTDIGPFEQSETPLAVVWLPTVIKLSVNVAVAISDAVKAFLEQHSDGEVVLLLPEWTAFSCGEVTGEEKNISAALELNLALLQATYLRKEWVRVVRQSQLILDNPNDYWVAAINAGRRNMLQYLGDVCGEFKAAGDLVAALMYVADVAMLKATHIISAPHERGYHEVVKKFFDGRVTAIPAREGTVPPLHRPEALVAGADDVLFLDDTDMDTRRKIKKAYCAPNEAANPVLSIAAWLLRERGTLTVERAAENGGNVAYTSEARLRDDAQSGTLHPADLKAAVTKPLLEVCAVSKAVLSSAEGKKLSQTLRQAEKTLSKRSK
- protocol_summary: Trypanosoma cruzi tyrosyl tRNA synthetase (TcYRS) _High Tyrosine SOP
- Type: functional
- Design: scale not given: in the data most compounds retested in dose-response had high values
- protocol_conditions: 30 µM
assay_metric: Percent Effect (%)

molecule=COC(=O)c1cccn1C1CCN(C(=O)c2cc(C)ccc2O)CC1 observed_result=2.91
molecule=CC(C)C(=O)N1CCC(c2nc(O)cc(-c3ccncc3)n2)CC1 observed_result=5.38
molecule="CCC(CC)C(O)CNC(=O)Nc1cc(C)nn1C (configuration not stated)" observed_result=1.48
molecule=Cn1cnnc1CNC(=O)Nc1cc(C(F)(F)F)c[nH]c1=O observed_result=2.45
molecule="CCOCC1CN(S(C)(=O)=O)Cc2cnn(CC3CCOCC3)c21 (configuration not stated)" observed_result=3.68
molecule=COc1cccc(-n2nnc(C(=O)N3CCCC3)c2C)c1 observed_result=7.18
molecule=CC(C)Cc1cc(NC(=O)c2ccc[nH]2)n(C)n1 observed_result=5.83
molecule="Cc1cc(C2CCCN2Cc2ccn(C)c(=O)c2)no1 (configuration not stated)" observed_result=3.35
molecule="CNC(=O)c1cccc(C2CNCCN2C(C)=O)c1 (configuration not stated)" observed_result=2.15
molecule=CCCSCC(=O)NS(=O)(=O)c1ccc2c(c1)OCCO2 observed_result=1.47
molecule=CS(=O)(=O)c1ccc(NC(=O)NCc2ccc3c(c2)CCC3)cn1 observed_result=5.26
molecule=COCCN1C[C@@H]2CN(Cc3cccc(F)c3)CCC[C@]2(C(=O)O)C1 observed_result=-2.12
